ENDPOINT: intrinsic clearance, rat liver microsomes

Example entries and their recorded answers appear below.
Cc1nnc(-c2cccc(C(=O)O)c2)o1	≤ 0.64 L/h/kg
CCCCNC(=O)c1ccc2c(c1)nnn2C	≤ 0.64 L/h/kg

Would you kindly look at the next entry?
Record summary for `CC(=O)Nc1cccc(OC(=O)N2CCOCC2)c1` : reported intrinsic clearance, rat liver microsomes = ≤ 0.64 L/h/kg

###

intrinsic clearance, human liver microsomes for assorted molecules

Example entries and their recorded answers appear below.
O=C(NCc1cc(F)cc(F)c1)c1ccccn1	≤ 4.74 mL/min/kg
CC(C)CN1C(=O)C(=O)N(Cc2ccccn2)C1=O	≤ 4.74 mL/min/kg

Record summary for `Cc1cncc(C2CCN(Cc3cnccn3)CC2)n1` : reported intrinsic clearance, human liver microsomes = ≤ 4.74 mL/min/kg
